# experiment_summary: Compound was evaluated for its hydrolysis at pH 9 for half life period (T1/2)
# Format: ADME
# test_settings: buffer
quantity_measured: half-life

• CO/N=C(/C(=O)NC1CCN2CC(C(C)=O)=C(C(=O)O)N2C1=O)c1csc(N)n1 (stereo unspecified) = 13.2 min

###

As shown below, each of these molecules has a reported k value.
# experiment_summary: Compound was evaluated for its hydrolysis at pH 10 expressed as pseudo first order rate constant (K) (micro = 0.5)
# Assay type: ADME
# test_settings: buffer
quantity_measured: k (h⁻¹)

- CO/N=C(/C(=O)NC1CCN2CC(C(=O)[O-])=C(C(=O)[O-])N2C1=O)c1csc(N)n1.[Na+].[Na+] (stereo not drawn): 0.146
- CC1(C)S[C@@H]2[C@H](NC(=O)COc3ccccc3)C(=O)N2[C@H]1C(=O)O: 0.248
- CO/N=C(/C(=O)NC1CN2CC(C(=O)O)=C(C(=O)O)N2C1=O)c1csc(N)n1 (stereo not drawn): 0.324

###

# experiment_summary: Compound was evaluated for its hydrolysis at pH 9 expressed as pseudo first order rate constant (K) (micro = 0.5)
# Assay type: ADME
# test_settings: buffer
quantity_measured: k (h⁻¹)

• CO/N=C(/C(=O)NC1CCN2CC(C(C)=O)=C(C(=O)O)N2C1=O)c1csc(N)n1 (stereo not given) = 3.16
• CO/N=C(/C(=O)NC1CCN2CC(C#N)=C(C(=O)O)N2C1=O)c1csc(N)n1 (stereo not given) = 1.75
• CO/N=C(\C(=O)NC1CN2CC(C(C)=O)=C(C(=O)O)N2C1=O)c1csc(N)n1 (stereo not given) = 0.724
• CO/N=C(/C(=O)NC1CCN2CC(C(=O)[O-])=C(C(=O)[O-])N2C1=O)c1csc(N)n1.[Na+].[Na+] (stereo not given) = 0.0144
• CO/N=C(/C(=O)NC1CN2CC(C#N)=C(C(=O)O)N2C1=O)c1csc(N)n1 (stereo not given) = 1.73

###

Quick reference for half-life among some compounds
# experiment_summary: Compound was evaluated for its hydrolysis at pH 9 half life period (T1/2)
# Assay type: ADME
# test_settings: buffer
quantity_measured: half-life (min)

- CO/N=C(\C(=O)NC1CN2CC(C(C)=O)=C(C(=O)O)N2C1=O)c1csc(N)n1 (centres undefined): 57.6
- CO/N=C(/C(=O)NC1CN2CC(C#N)=C(C(=O)O)N2C1=O)c1csc(N)n1 (centres undefined): 24
- CO/N=C(/C(=O)NC1CCN2CC(C(=O)[O-])=C(C(=O)[O-])N2C1=O)c1csc(N)n1.[Na+].[Na+] (centres undefined): 2880
- CO/N=C(/C(=O)NC1CCN2CC(C#N)=C(C(=O)O)N2C1=O)c1csc(N)n1 (centres undefined): 24

# credit: ChEMBL document CHEMBL1125703
